- assay-overview: Human HepG2 cell viability assay in 384 well format
- Assay type: toxicity, cell-based
- Set-up: dose 125 nL, time 70.5 hour; concentration not given beside the values
- recorded-conditions: HepG2 cells, read-out: Inhibition
measure: cytotoxicity at 70.5 h (%)
Provide only the numeric value, understood in %.

So for CCCn1c(NC(=O)CNC(=O)OCC)nc2ccccc21 , the logged cytotoxicity at 70.5 h turned out to be -8.2

---

- assay-overview: Human HepG2 cell viability assay in 384 well format
- Type: toxicity, cell-based
- Set-up: dose 125 nL, time 70.5 hour; concentration not given beside the values
- recorded-conditions: HepG2 cells, read-out: Inhibition
measure: cytotoxicity at 70.5 h (%)
Provide only the numeric value, understood in %.

[
  {
    "compound": "CC(C)(C)C(NC(=O)CCCS(C)(=O)=O)c1ccc(F)cc1F (stereo unspecified)",
    "cytotoxicity at 70.5 h [%]": -0.26
  }
]

So for COc1cccc2c1OCC(C(=O)N1CCC(N3CCSCC3)CC1)C2 (stereo unspecified) , the logged cytotoxicity at 70.5 h turned out to be 4.8

So for COc1ccc2c(ccn2CC(=O)N2CCCC2c2cnn(C)c2)c1 (stereo unspecified) , the logged cytotoxicity at 70.5 h turned out to be 0.452

So for COCCCN(C)c1nc(-c2ccncc2)nc(C)c1C , the logged cytotoxicity at 70.5 h turned out to be -5.34

So for CCc1cc(N[C@H]2CC[C@@H](N)CC2)n2nc(C)c(C)c2n1 , the logged cytotoxicity at 70.5 h turned out to be -7.71

So for O=C(COCC(F)(F)C(F)F)N1CCC2(CCCN(CC3CC3)C2=O)C1 (stereo unspecified) , the logged cytotoxicity at 70.5 h turned out to be -8.88

So for Cc1csc(CNc2nc3c(s2)c(C)nn3C)n1 , the logged cytotoxicity at 70.5 h turned out to be -4.74

So for O=C(NC[C@H]1OC[C@@H]2CCN(C(=O)c3ccco3)C[C@@H]21)C1CC1 , the logged cytotoxicity at 70.5 h turned out to be -6.37

So for Cc1ccc(OCC(=O)N(C)Cc2ccc(F)cc2)cn1 , the logged cytotoxicity at 70.5 h turned out to be -8.48

So for CC(=O)c1ccc(-c2cc(C(F)(F)F)cc(N(C)C)n2)cc1 , the logged cytotoxicity at 70.5 h turned out to be -7.82

So for Cc1cccc(C(=O)N2CCCC[C@]3(C)NC(=O)CCC[C@H]23)n1 , the logged cytotoxicity at 70.5 h turned out to be -8.97
